Below is a list of entries, each paired with its recorded pEC50 value.
target: truncated elephant shark MR (Elephant shark MR-DBD-hinge-LBD) (Callorhinchus milii)
Sequence (A0A4W3I5J5 575-956 limits assumed): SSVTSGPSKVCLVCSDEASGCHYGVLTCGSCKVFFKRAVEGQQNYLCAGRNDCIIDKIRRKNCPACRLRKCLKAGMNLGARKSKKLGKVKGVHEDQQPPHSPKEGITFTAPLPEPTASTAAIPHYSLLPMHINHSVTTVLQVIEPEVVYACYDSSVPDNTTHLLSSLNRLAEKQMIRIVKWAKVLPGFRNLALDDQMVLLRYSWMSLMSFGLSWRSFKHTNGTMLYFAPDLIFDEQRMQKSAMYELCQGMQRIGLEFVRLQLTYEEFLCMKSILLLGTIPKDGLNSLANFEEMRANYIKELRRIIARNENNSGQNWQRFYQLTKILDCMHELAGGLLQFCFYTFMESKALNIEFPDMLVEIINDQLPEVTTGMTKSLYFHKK
procedure.details: cell-based
Set-up: species or system HEK293
pEC50: −log10 of the molar value.
experimental.readout: pEC50

> print(dat)
                              smiles.record  value.measured
1  CC(=O)[C@H]1CC[C@H]2[C@@H]3CCC4=CC(=O)CC[C@@H]4[C@H]3CC[C@]12C            9.70
2  C[C@]12C[C@H](O)[C@H]3[C@@H](CCC4=CC(=O)CC[C@@]43C)[C@@H]1CC[C@@H]2C(=O)CO            9.24
3  C[C@]12CCC(=O)C=C1CC[C@@H]1[C@@H]2[C@@H](O)C[C@@]2(C)[C@H]1CC[C@]2(O)C(=O)CO            8.96
4  C[C@]12CCC(=O)C=C1CC[C@@H]1[C@@H]2[C@@H](O)C[C@]2(C=O)[C@@H](C(=O)CO)CC[C@@H]12            9.59
